tested on: PSEUDOMONAS AERUGINOSA K799/61; assay: In vitro antibacterial activity, agar dilution MIC; format: cell-based; details: P. aeruginosa K799/61, BHI agar, 35-37° C., 20 to 24 hours, read-out: MIC
property.label: MIC (µg/mL)
Answers are plain numbers, in µg/mL.

compound	MIC [µg/mL]
CC[C@H]1OC(=O)[C@H](C)[C@@H](O[C@H]2C[C@@](C)(OC)[C@@H](O)[C@H](C)O2)[C@H](C)[C@@H](O[C@@H]2O[C@H](C)C[C@H](N(C)C)[C@H]2O)[C@](C)(O)C[C@@H](C)[C@@H](N(C)C)[C@H](C)[C@@H](O)[C@H]1CO [Compound 11]	12.5
CC[C@H]1OC(=O)[C@H](C)[C@@H](O[C@H]2C[C@@](C)(OC)[C@@H](O)[C@H](C)O2)[C@H](C)[C@@H](O[C@@H]2O[C@H](C)C[C@H](N(C)C)[C@H]2O)[C@](C)(O)C[C@@H](C)[C@@H](N(C)C)[C@H](C)[C@@H](O)[C@@]1(O)CO [Compound 10]	50
CC[C@H]1OC(=O)[C@H](C)[C@@H](O[C@H]2C[C@@](C)(OC)[C@@H](O)[C@H](C)O2)[C@H](C)[C@@H](O[C@@H]2O[C@H](C)C[C@H](N(C)C)[C@H]2O)[C@](C)(O)C[C@@H](C)[C@@H](N)[C@H](C)[C@@H](O)[C@@]1(O)CNCc1ccccc1 [Compound 14]	25

Value lookup for MIC; key = CC[C@H]1OC(=O)[C@H](C)[C@@H](O[C@H]2C[C@@](C)(OC)[C@@H](O)[C@H](C)O2)[C@H](C)[C@@H](O[C@@H]2O[C@H](C)C[C@H](N(C)C)[C@H]2O)[C@](C)(O)C[C@@H](C)[C@@H](N(C)C)[C@H](C)[C@@H](O)[C@@]12CO2 [Compound 8] 12.5
